- Procedure Text: Protein binding in pooled rat plasma assessed as unbound fraction incubated for 6 hrs by LC-MS/MS analysis based equilibrium dialysis method
- Assay type: ADME, cell-free
Readout Name: fraction unbound at 6 h

Ask: // lookup fraction unbound at 6 h for Cc1c(N2CCCC2)nc2ccc(Br)cc2c1C(=O)NC[C@H](CCC(=O)O)c1ccccc1Cl [BAY-6672]
Reply: < 0.01

###

In this section, each of the compounds is paired with its reported CL.
- Procedure Text: Clearance in Wistar rat at 0.3 to 1 mg/kg, iv administered as bolus dose or 15 mins infusion by LC-MS/MS analysis
- Assay type: ADME, organism-based
- Setup Conditions: in vivo, 0.25 h, dose 0.3-1 mg/kg
// units = mL/min/kg; emit number, no label

Solved cases (5 shown):
[[record]]
compound = "Cc1c(-c2ccccc2)nc2ccc(Br)cc2c1C(=O)NCC(CCC(=O)O)c1ccccc1Cl (single isomer, unassigned; (-))"
recorded_number = 50

[[record]]
compound = "Cc1c(-c2ccccc2)nc2ccc(Br)cc2c1C(=O)NCC(CC(=O)O)c1ccccc1Cl (single isomer, unassigned; (+))"
recorded_number = 43.3

[[record]]
compound = "CCC1CCCN(c2nc3ccc(Br)cc3c(C(=O)NCC(CCC(=O)O)c3ccccc3Cl)c2C)C1 (single isomer, unassigned; 52)"
recorded_number = 48.3

[[record]]
compound = "Cc1c(-c2ccccc2)nc2ccc(Br)cc2c1C(=O)NCC(CC(=O)O)c1ccccc1Cl (stereo in doubt; 34)"
recorded_number = 18.3

[[record]]
compound = "Cc1c(N2CCCCC2)nc2ccc(Br)cc2c1C(=O)NCC(CCC(=O)O)c1ccccc1Cl (single isomer, unassigned; (-))"
recorded_number = 25


Note: attention shifts to another entry.
Ask: // lookup CL for CCC1CCCN(c2nc3ccc(Br)cc3c(C(=O)NCC(CCC(=O)O)c3ccccc3Cl)c2C)C1 (single isomer, unassigned; 53)
Reply: 21.7

###

- Species: Homo sapiens
- Procedure Text: Selectivity ratio of IC50 for displacement of [3H]PGD2 from full-length recombinant human IP receptor expressed in HEK293 cell membranes to IC50 for displacement of [3H]PGF2alpha from full-length recombinant human FP receptor expressed in HEK293 cell membranes
Readout Name: Ratio IC50

Solved cases (8 shown):
[[record]]
compound = "Cc1c(-c2cccs2)nc2ccc(Br)cc2c1C(=O)NCCc1cccnc1"
result = "> 3.1"

[[record]]
compound = "Cc1c(-c2ccccc2)nc2ccc(Br)cc2c1C(=O)Nc1ccc(C(=O)O)cc1F"
result = "> 76"

[[record]]
compound = "Cc1c(-c2ccccc2)nc2ccc(Br)cc2c1C(=O)NCC(CCC(=O)O)c1ccccc1Cl (single isomer, unassigned; (-))"
result = "> 8200"

[[record]]
compound = "Cc1c(-c2ccccc2)nc2ccc(Br)cc2c1C(=O)Nc1ccc(C(=O)O)cc1"
result = "> 110"

[[record]]
compound = "CCC1CCCN(c2nc3ccc(Br)cc3c(C(=O)NCC(CCC(=O)O)c3ccccc3Cl)c2C)C1 (single isomer, unassigned; 52)"
result = "> 180"

[[record]]
compound = "Cc1c(-c2ccccc2)nc2ccc(C(F)(F)F)cc2c1C(=O)Nc1ccc(C(=O)O)cc1F"
result = "> 64"

[[record]]
compound = "Cc1c(-c2ccccc2)nc2ccc(C(C)(C)C)cc2c1C(=O)Nc1ccc(C(=O)O)cc1F"
result = "> 87"

[[record]]
compound = "CCC1CCCN(c2nc3ccc(Br)cc3c(C(=O)NCC(CCC(=O)O)c3ccccc3Cl)c2C)C1 (single isomer, unassigned; 55)"
result = "> 300"


Ask: // lookup Ratio IC50 for Cc1c(-c2ccccc2)nc2ccc(Br)cc2c1C(=O)NCC(CCC(=O)O)c1ccccc1Cl (single isomer, unassigned; (+))
Reply: > 6300

Ask: Check Cc1c(C(=O)Nc2ccc(C(=O)O)cc2F)c2cc(Br)ccc2[n+]([O-])c1-c1ccccc1 too.
Reply: > 91

Ask: Check Cc1c(C(=O)Nc2ccc(C(=O)O)cc2F)c2cc(Br)ccc2c(=O)n1-c1ccccc1 too.
Reply: > 1600

Ask: Check O=C(O)c1ccc(NC(=O)c2c(Cl)c(-c3ccccc3)nc3ccc(Br)cc23)c(F)c1 too.
Reply: > 38

Ask: Check Cc1c(-c2ccccc2)nc2ccc(I)cc2c1C(=O)Nc1ccc(C(=O)O)cc1F too.
Reply: > 86

Ask: Check CCC1CCCN(c2nc3ccc(Br)cc3c(C(=O)NCC(CCC(=O)O)c3ccccc3Cl)c2C)C1 (single isomer, unassigned; 54) too.
Reply: > 180

Ask: Check CCC1CCCN(c2nc3ccc(Br)cc3c(C(=O)NCC(CCC(=O)O)c3ccccc3Cl)c2C)C1 (single isomer, unassigned; 53) too.
Reply: > 580
